measurement_description: qHTS assay to identify small molecule antagonists of the estrogen receptor beta (ER-beta) signaling pathway - cell viability counter screen (AID 1259382); note: nearly all actives have a fitted effect of over 55% in size
applied_conditions: ER-beta-UAS-bla HEK293T viability, CellTiter-Glo luminescence, 16 h; series mostly up to 92.4 µM
Inconclusive results are not listed. Activity calls are given as the source filed them. Calls come from the whole dose curve; as a rule, active = well fitted cell-killing curve with a large enough effect in the repeat runs; inconclusive = weak or mixed curves; inactive = flat fitted curve, though single readings scatter.
The reply should be one of these categories: y for active, n for inactive

Previously resolved entries follow.
{"molecule": "O=C(CCCCCCCCc1cccnc1)N1CCC(C=C(c2ccccc2)c2ccccc2)CC1", "label_value": "y"}
{"molecule": "Cc1cc(F)ccc1-c1cc(N2CC[C@@H](O)[C@H]2CO)ncc1N(C)C(=O)C(C)(C)c1cc(C(F)(F)F)cc(C(F)(F)F)c1", "label_value": "y"}
{"molecule": "CN1CC[C@H](c2c(O)cc(O)c3c(=O)cc(-c4ccccc4Cl)oc23)[C@H](O)C1", "label_value": "n"}
{"molecule": "CCOC(=O)[C@H](C)O", "label_value": "n"}
{"molecule": "CCc1c(C)cc(N)c(CC)c1N", "label_value": "n"}

Record request — test call for CCOC(=O)C1=NN(c2ccc(Cl)cc2Cl)C(C)(C(=O)OCC)C1 (stereo not drawn)
n

Record request — test call for N#Cc1nc(Cl)c(Cl)c(Cl)c1Cl
y

Record request — test call for CCCC(=O)c1cc(O)c(O)cc1O
n

Record request — test call for c1ccc(C[P+](c2ccccc2)(c2ccccc2)c2ccccc2)cc1
n

Record request — test call for CCSCC
n

Record request — test call for C=COCCCC
n

Record request — test call for CC(c1cc(C(C)(C)C)cc(C(C)(C)C)c1O)c1cc(C(C)(C)C)cc(C(C)(C)C)c1O
n

Record request — test call for CC(C)C(=O)C(C)C
n

* * *

measurement_description: qHTS assay to identify small molecule agonists of the constitutive androstane receptor (CAR) signaling pathway - cell viability counter screen (AID 1224836); note: nearly all actives have a fitted effect of over 45% in size
applied_conditions: HepG2-CYP2B6-hCAR viability, CellTiter-Fluor, 23 h, PK11195 added to every well; series mostly up to 92.4 µM
Records with an inconclusive call do not appear. The source made the active and inactive calls. The call rests on the fitted dose curve; in most records, active means well fitted cell-killing curve with a large enough effect in the repeat runs; inconclusive means weak or mixed curves, or effect the other way; inactive means flat fitted curve, though single readings scatter.
The reply should be one of these categories: active, inactive

{"compound": "CC1(C)[C@H](C(=O)OCc2cccc(Oc3ccccc3)c2)[C@@H]1C=C(Cl)Cl", "label_value": "inactive"}
{"compound": "O=C1OC(O)C(C(Cl)Cl)=C1Cl (centres undefined)", "label_value": "inactive"}
{"compound": "COc1cccc(-c2ccc(/C=C\\CN3CCCCCC3)cc2Cl)c1", "label_value": "inactive"}

Record request — test call for CCC(O)CO (centres undefined)
inactive

Record request — test call for C=COCCCC
inactive

Record request — test call for COc1ccc(OC)c(N=Nc2c(O)ccc3ccccc23)c1
active

Record request — test call for C=C(C)C1CCC(C)CC1O (centres undefined)
inactive

Record request — test call for CCCCCCCCc1ccc(Nc2ccc(CCCCCCCC)cc2)cc1
inactive

Record request — test call for CCN(CC)c1ccc2c(c1)Oc1cc(N(CC)CC)ccc1C21OC(=O)c2ccccc21
active

Record request — test call for COC(=O)c1ccc([N+](=O)[O-])cc1
inactive

* * *

measurement_description: A CellTox Green Cytotoxicity Assay to monitor cytotoxicity in HEK293 cells - 8 hour (AID 1224884); note: nearly all actives have a fitted effect of over 35% in size
applied_conditions: CellTox Green fluorescence; series mostly up to 76.8 µM
Records with an inconclusive call do not appear. Calls of active or inactive are those of the source. Calls follow the shape of the dose curve; as a rule, active = well fitted activation curve with a large enough effect in the repeat runs; inconclusive = weak or mixed curves; inactive = flat fitted curve, though single readings scatter.
The reply should be one of these categories: Yes (active), No (inactive)

Previously resolved entries follow.
{"molecule": "CCCCCCCCCCCCCCCCCCNC(=O)OC1CCN(C(=O)OC[C@H](COC(=O)N(Cc2cccc[n+]2CC)C(=O)c2ccccc2OC)OC)CC1", "label_value": "Yes"}
{"molecule": "C/C(=C\\c1ccc(C(=O)O)cc1)c1ccc2c(c1)C(C)(C)CCC2(C)C", "label_value": "No"}
{"molecule": "C/C=C/C(=O)C1=C(C)C=CCC1(C)C", "label_value": "No"}

Would you kindly look at the next entry?
Record request — test call for O=C(Nc1ccc([N+](=O)[O-])cc1)Nc1ccc([N+](=O)[O-])cc1 (tested in a mixture with another compound)
No

* * *

measurement_description: qHTS assay to identify small molecule antagonists of the estrogen related receptor (ERR) signaling pathway (AID 1224819; note: nearly all actives have a fitted effect of over 50% in size)
applied_conditions: ERR reporter cell line, luciferase inhibition; series mostly up to 46.1 µM
Records with an inconclusive call do not appear. Active and inactive are the calls of the source. Calls come from the whole dose curve; as a rule, active = well fitted inhibition curve with a large enough effect in the repeat runs; inconclusive = weak or mixed curves; inactive = no such curve, though single readings can be large or run the other way.
The reply should be one of these categories: true (active), false (inactive)

Previously resolved entries follow.
{"compound": "CCCCCCC/C=C\\CCCCCCCCC(=O)O", "label_value": "false"}
{"compound": "Nc1ncnc2n[nH]c(Nc3ccc(F)cc3)c12", "label_value": "false"}
{"compound": "N#CC(=C(\\N)Sc1ccccc1N)/C(C#N)=C(/N)Sc1ccccc1N", "label_value": "true"}

Record request — test call for CCN1C(=O)C=CC1=O
false

* * *

measurement_description: qHTS assay to identify small molecule antagonists of the estrogen receptor alpha (ER-alpha) signaling pathway - cell viability counter screen (AID 743074);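 note: HEK293 cells carrying ER-alpha-UAS-bla reporter stimulated with 17beta-estradiol; nearly all actives have a fitted effect of over 45% in size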
applied_conditions: ERalpha-bla HEK293 viability, CellTiter-Glo luminescence, 18 h; series mostly up to 69.4 µM
Inconclusive results are not listed. The source made the active and inactive calls. The call rests on the fitted dose curve.
The reply should be one of these categories: 1.0 for active, 0.0 for inactive

Previously resolved entries follow.
{"molecule": "N[C@H](CO)C(=O)O", "label_value": 0.0}
{"molecule": "CCCCCCCCCCCC[n+]1ccc2ccccc2c1", "label_value": 1.0}
{"molecule": "CO/N=C(\\C(=O)N[C@@H]1C(=O)N2C(C(=O)O)=C(CSc3nc(C)c(CC(=O)O)s3)CS[C@H]12)c1csc(N)n1", "label_value": 0.0}
{"molecule": "C=N[C@@H](C(=O)N[C@@H]1C(=O)N2[C@@H]1SC(C)(C)[C@@H]2C(=O)O)c1ccccc1", "label_value": 0.0}

Record request — test call for NC[C@H]1O[C@H](O[C@H]2[C@H](O)[C@@H](O[C@H]3O[C@H](CO)[C@@H](O)[C@H](N)[C@H]3O)[C@H](N)C[C@@H]2N)[C@H](N)C[C@@H]1O
0.0

Record request — test call for O=C(CCN1CCC(c2ccccc2)C1)c1ccc2c(c1)OCCO2 (centres undefined)
0.0

Record request — test call for CC1(C)C[C@@H]1C(=O)N/C(=C\CCCCSC[C@H](N)C(=O)O)C(=O)O
0.0

* * *

measurement_description: qHTS assay to identify small molecule antagonists of the glucocorticoid receptor (GR) signaling pathway - cell viability counter screen (AID 720693); note: nearly all actives have a fitted effect of over 55% in size; note: potency is the fitted concentration of half-maximal effect
applied_conditions: GR-bla HeLa viability, CellTiter-Glo luminescence, 18 h, with 5 nM dexamethasone present; series mostly up to 58.5 µM
Results filed as inconclusive are left out. Active and inactive are the calls of the source. Calls follow the shape of the dose curve; as a rule, active = well fitted cell-killing curve with a large enough effect in the repeat runs; inconclusive = weak or mixed curves, or effect the other way; inactive = no such curve, though single readings can be large or run the other way.
readout_name: Potency

{"compound": "O=P(O)(O)CP(=O)(O)O", "recorded_value": "inactive"}
{"compound": "CO[C@H](C(=O)[C@@H](O)[C@@H](C)O)C1Cc2cc3cc(O[C@H]4C[C@@H](O[C@H]5C[C@@H](O)[C@H](O)[C@@H](C)O5)[C@@H](O)[C@@H](C)O4)c(C)c(O)c3c(O)c2C(=O)[C@H]1O[C@H]1C[C@@H](O[C@H]2C[C@@H](O[C@H]3C[C@](C)(O)[C@H](O)[C@@H](C)O3)[C@H](O)[C@@H](C)O2)[C@H](O)[C@@H](C)O1 (stereo partly drawn)", "recorded_value": "1.34 µM (active)"}
{"compound": "O=C(O)COc1ccccc1/C=N/NC(=O)c1ccncc1", "recorded_value": "inactive"}

* * *

measurement_description: qHTS RealTime-Glo MT Cell Viability Assay in HepG2 cells - 40 hour (AID 1224870); note: nearly all actives have a fitted effect of over 50% in size
applied_conditions: RealTime-Glo luminescence; series mostly up to 76.8 µM
Inconclusive results are not listed. The source made the active and inactive calls. Calls follow the shape of the dose curve; as a rule, active = well fitted cell-killing curve with a large enough effect in the repeat runs; inconclusive = weak or mixed curves, or effect the other way; inactive = flat fitted curve, though single readings scatter.
The reply should be one of these categories: y (active), n (inactive)

{"molecule": "CC(C)c1ccc2sc3ccccc3c(=O)c2c1", "label_value": "n"}
{"molecule": "O=C1OCc2ccccc21", "label_value": "n"}

Record request — test call for Brc1cc(Br)cc(Br)c1
n

Record request — test call for O[Si](c1ccccc1)(c1ccccc1)c1ccccc1
n

Record request — test call for [Cl][Sc]([Cl])[Cl]
n

Record request — test call for CN(C)CCOc1ccc(/C(=C(/CCCl)c2ccccc2)c2ccccc2)cc1
y

Record request — test call for CCc1cccc(C)c1N(C(=O)CS(=O)(=O)O)C(C)COC (centres undefined)
n

Record request — test call for CCOc1nc(F)cc2nc(S(=O)(=O)Nc3c(Cl)cccc3C(=O)OC)nn12
n

Record request — test call for Nc1cc([N+](=O)[O-])ccc1Cl
n

Record request — test call for Clc1cccc(Cl)n1
n

Record request — test call for C1=CCCC1
n

Record request — test call for COc1c(Br)cc(Br)c(C)c1Br
n

Record request — test call for CCCCCCCCCCCCCCCCC(C(=O)O)C(O)(CC(=O)O)C(=O)O (centres undefined)
n

Record request — test call for Cc1ccc(C=O)cc1
n
